tested on: ATP; experiment: switch fluorescence ratio, 500 uM ATP over buffer (Cy3 cluster intensity, sum of 5 cycles each) (fold (ratio)); higher = stronger signal-on switching upon ATP binding; sequences stand for … in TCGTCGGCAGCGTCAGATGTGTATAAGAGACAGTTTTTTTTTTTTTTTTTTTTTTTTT…TC; details: aptamer strand: ATP DNA aptamer (quencher-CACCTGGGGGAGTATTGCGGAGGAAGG + anchor), 100 nM annealed; ATP concentration: 500 uM;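 note: ATP exposure 15 min at 22 °C before imaging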
Label rule, in plain words: switch fluorescence ratio of 1 and up is 1.0, under 1 is 0.0.

sequenceentry=AGTTTTTAAA assignedclass=1.0
sequenceentry=CTCTTATAGT assignedclass=0.0
sequenceentry=ACTTAGCATT assignedclass=1.0

[ask] For this sequence, is measured switch fluorescence ratio 1 or higher? "TTGGGGGTAT"
[reply] 1.0

[ask] Decide: is the reported value of switch fluorescence ratio for "GTCGGGGAGG" equal to or greater than 1?
[reply] 1.0

###

Reported switch fluorescence ratio values follow for various sequences
tested on: ATP; experiment: switch fluorescence ratio, 500 uM ATP over buffer (Cy3 cluster intensity, sum of 5 cycles each) (fold (ratio)); higher = stronger signal-on switching upon ATP binding; sequences stand for … in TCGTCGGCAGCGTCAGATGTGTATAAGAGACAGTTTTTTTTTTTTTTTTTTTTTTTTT…TC; details: aptamer strand: ATP DNA aptamer (quencher-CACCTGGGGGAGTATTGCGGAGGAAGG + anchor), 100 nM annealed; ATP concentration: 500 uM;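 note: ATP exposure 15 min at 22 °C before imaging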
When you answer, write just the number.

Below, each entry is followed by its recorded switch fluorescence ratio result.
sequenceentry=AGGTATTGGG valuekind="switch fluorescence ratio" readoutvalue=1.02
sequenceentry=GAATGGCTGG valuekind="switch fluorescence ratio" readoutvalue=0.962
sequenceentry=TAAAAACCTT valuekind="switch fluorescence ratio" readoutvalue=1.43
sequenceentry=AGTTAAAAAT valuekind="switch fluorescence ratio" readoutvalue=0.996
sequenceentry=GTTGAGAGGA valuekind="switch fluorescence ratio" readoutvalue=0.964
sequenceentry=GCGTTGGGGG valuekind="switch fluorescence ratio" readoutvalue=0.995
sequenceentry=GTTTTATTTT valuekind="switch fluorescence ratio" readoutvalue=1
sequenceentry=CATTGGCCGG valuekind="switch fluorescence ratio" readoutvalue=1.09
sequenceentry=TTGGCGAAGG valuekind="switch fluorescence ratio" readoutvalue=0.982
sequenceentry=TCTTGGTCGT valuekind="switch fluorescence ratio" readoutvalue=0.968

So for "AATGAGTCAA" , the logged switch fluorescence ratio turned out to be 1

Briefly, switch fluorescence ratio measured for "TTTGCGACGT" : 1.02

Given item "AAGGTTGGTG" , the value recorded as its switch fluorescence ratio is 1

###

tested on: ATP; assay: switch fluorescence ratio, 500 uM ATP over buffer (Cy3 cluster intensity, sum of 5 cycles each) (fold (ratio)); higher = stronger signal-on switching upon ATP binding; sequences stand for … in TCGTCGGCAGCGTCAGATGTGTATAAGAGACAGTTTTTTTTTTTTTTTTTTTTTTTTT…TC; settings: aptamer strand: ATP DNA aptamer (quencher-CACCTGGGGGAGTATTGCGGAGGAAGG + anchor), 100 nM annealed; ATP concentration: 500 uM;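 note: ATP exposure 15 min at 22 °C before imaging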
Each entry below lists one item and its recorded switch fluorescence ratio value.
// keep it numeric: no unit symbol after the value

Illustrative cases are given below, each with its answer.
sequenceentry=TTTCGTATGT readoutvalue=0.997
sequenceentry=TTCGGGGTTC readoutvalue=1
sequenceentry=ATTTGCATAC readoutvalue=2.62
sequenceentry=GGGGTGGCCT readoutvalue=1
sequenceentry=CAGTATTTCC readoutvalue=1.05
sequenceentry=AAAAGCGTTA readoutvalue=0.996
sequenceentry=TATCGTAGGG readoutvalue=1
sequenceentry=CGGGGGAGCG readoutvalue=1
sequenceentry=CTAGGCAATG readoutvalue=1.44
sequenceentry=ACGATTAGGG readoutvalue=0.996

What the record says about "GCCGCAGTTT" : switch fluorescence ratio is 1.31

Measured switch fluorescence ratio of "GTGTAGAGGG" : 1

The sequence listed as "TATAGGCGCT" shows switch fluorescence ratio equal to 0.994

Looking up "GGAAACGGGG" , I found its switch fluorescence ratio recorded as 1

Summary for this sequence, "GATGGTTGGA" : switch fluorescence ratio is 0.982

###

test system: ATP; test: switch fluorescence ratio, 500 uM ATP over buffer (Cy3 cluster intensity, sum of 5 cycles each) (fold (ratio)); higher = stronger signal-on switching upon ATP binding; sequences stand for … in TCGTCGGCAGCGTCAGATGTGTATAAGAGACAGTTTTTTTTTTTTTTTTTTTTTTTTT…TC; settings: aptamer strand: ATP DNA aptamer (quencher-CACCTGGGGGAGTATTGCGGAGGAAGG + anchor), 100 nM annealed; ATP concentration: 500 uM;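 note: ATP exposure 15 min at 22 °C before imaging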
Use 1 as the dividing line for switch fluorescence ratio, with the line itself on the 1 (yes) side and lower values as 0 (no).

sequenceentry=AGGCTCACAA assignedclass="1 (yes)"
sequenceentry=ACGTGGAGGA assignedclass="1 (yes)"
sequenceentry=AATAAAAGAG assignedclass="0 (no)"
sequenceentry=GACGGGGGAA assignedclass="1 (yes)"
sequenceentry=GCCGGGATCG assignedclass="0 (no)"
sequenceentry=CCGTCAGAGT assignedclass="1 (yes)"
sequenceentry=CAAGAGGGTC assignedclass="1 (yes)"
sequenceentry=ATGGGAATAC assignedclass="1 (yes)"

Now consider a different sequence.
[ask] Kindly determine if switch fluorescence ratio recorded for "CGGAAAATGT" is above or exactly 1.
[reply] 0 (no)

###

tested on: ATP; assay: switch fluorescence ratio, 500 uM ATP over buffer (Cy3 cluster intensity, sum of 5 cycles each) (fold (ratio)); higher = stronger signal-on switching upon ATP binding; sequences stand for … in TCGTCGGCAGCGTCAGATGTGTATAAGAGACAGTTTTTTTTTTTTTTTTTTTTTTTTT…TC; conditions: aptamer strand: ATP DNA aptamer (quencher-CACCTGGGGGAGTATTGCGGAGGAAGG + anchor), 100 nM annealed; ATP concentration: 500 uM;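 note: ATP exposure 15 min at 22 °C before imaging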
valueKind: switch fluorescence ratio
Just the number, please, no unit after it.

Reference set, count: 8
sequenceentry=CCTGGTGGAC tgt=ATP readoutvalue=1.11
sequenceentry=TGTGAGCAGG tgt=ATP readoutvalue=1.15
sequenceentry=ACATGCAAGC tgt=ATP readoutvalue=1.64
sequenceentry=GGATTAGGAG tgt=ATP readoutvalue=0.975
sequenceentry=ATAGGGGTCG tgt=ATP readoutvalue=1.01
sequenceentry=AATTCGTCG tgt=ATP readoutvalue=0.956
sequenceentry=CGAGTCGCGA tgt=ATP readoutvalue=1.04
sequenceentry=TTGGTCGCTG tgt=ATP readoutvalue=1.01

Value of measured switch fluorescence ratio for the entry "TCCATGTGTT" : 1.01

Documented switch fluorescence ratio of "TGAACGTTTT" : 1.04

So for "AAAGTTCGAG" , the logged switch fluorescence ratio turned out to be 0.99

Form field switch fluorescence ratio, entry "TGGGACAGTG" : 0.968

Entry under test: "AAGTTAAAGG" . Its switch fluorescence ratio was 1.03

Entry under test: "TTAGATCAGC" . Its switch fluorescence ratio was 0.99

Record "TTAATACCGC" . Reported switch fluorescence ratio: 1.12

Looking up "ATGAAGTGAG" , I found its switch fluorescence ratio recorded as 1.01

So for "ATCATAAGGT" , the logged switch fluorescence ratio turned out to be 1.02

###

system: ATP; test: switch fluorescence ratio, 500 uM ATP over buffer (Cy3 cluster intensity, sum of 5 cycles each) (fold (ratio)); higher = stronger signal-on switching upon ATP binding; sequences stand for … in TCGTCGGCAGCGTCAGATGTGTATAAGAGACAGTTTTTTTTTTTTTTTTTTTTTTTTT…TC; conditions: aptamer strand: ATP DNA aptamer (quencher-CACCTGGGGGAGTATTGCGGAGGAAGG + anchor), 100 nM annealed; ATP concentration: 500 uM;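 note: ATP exposure 15 min at 22 °C before imaging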
Given measured switch fluorescence ratio, output yes if it is greater than or equal to 1 and no if not.

Example entries and their recorded answers appear below.
sequenceentry=GTTGGGGGCA assignedclass=no
sequenceentry=CTTGGGGGAA assignedclass=no
sequenceentry=TAAACGTATT assignedclass=yes
sequenceentry=TTTGTGATAA assignedclass=no
sequenceentry=GAAGAAGGTG assignedclass=yes

Now let's try a different one.
[ask] Would you say "TCGAAGTCAG" shows switch fluorescence ratio at minimum 1?
[reply] yes

###

Item-by-item account of switch fluorescence ratio
test system: ATP; test: switch fluorescence ratio, 500 uM ATP over buffer (Cy3 cluster intensity, sum of 5 cycles each) (fold (ratio)); higher = stronger signal-on switching upon ATP binding; sequences stand for … in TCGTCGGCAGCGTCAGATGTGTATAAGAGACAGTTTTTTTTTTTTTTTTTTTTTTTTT…TC; details: aptamer strand: ATP DNA aptamer (quencher-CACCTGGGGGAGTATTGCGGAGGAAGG + anchor), 100 nM annealed; ATP concentration: 500 uM;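 note: ATP exposure 15 min at 22 °C before imaging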
API doc: respond with a numeric literal and nothing else, no unit.

Reference set, count: 5
sequenceentry=TTGTTCCTTG valuekind="switch fluorescence ratio" readoutvalue=1.01
sequenceentry=AGGATGGTTG valuekind="switch fluorescence ratio" readoutvalue=1
sequenceentry=GGGACGCAGG valuekind="switch fluorescence ratio" readoutvalue=1.02
sequenceentry=AGTTTTTATG valuekind="switch fluorescence ratio" readoutvalue=1.03
sequenceentry=ATGGGGTTTT valuekind="switch fluorescence ratio" readoutvalue=1.01

For the sequence "ACGGGGCTAA" , the measured switch fluorescence ratio on ATP was 1.12

Field switch fluorescence ratio (system: ATP) for entry "TGCTTTTGAT" = 1

Measured on ATP, "AAGGTTGAAC" has a documented switch fluorescence ratio of 0.979

Entry "GGGGGAGAAC" ; assay system ATP; switch fluorescence ratio recorded at 1.03

Entry "CTTTATTTGC" ; assay system ATP; switch fluorescence ratio recorded at 1.05

// sequence "GGGATTGGGA" , assay ATP, switch fluorescence ratio value: 0.99

Lab entry: ATP assay, sequence "GAGGGATTTG" , switch fluorescence ratio = 1

For the sequence "GGCTTAATAG" , the measured switch fluorescence ratio on ATP was 1.01

Bench note, ATP: "TTCAAAATTA" , switch fluorescence ratio reads 0.991

Per the reported ATP data, "CATGGGGGAG" has switch fluorescence ratio of 0.978

The reported ATP switch fluorescence ratio of "AACGGGTCTA" is 1.01

Reading of switch fluorescence ratio for "ATAAGGAGGT" with ATP: 1.01

// sequence "TTAGGATGA" , assay ATP, switch fluorescence ratio value: 1.01

Entry "TTAGTGTTGT" ; assay system ATP; switch fluorescence ratio recorded at 0.969

Lab entry: ATP assay, sequence "ATGTAAGAGG" , switch fluorescence ratio = 0.975

"AAACTAGGGT" on ATP gives switch fluorescence ratio = 0.998

Entry "TAGAGGGGCT" , ATP data, switch fluorescence ratio value: 0.993

Item: "GCTACCCACT" | System: ATP | switch fluorescence ratio: 1.46

Value sought: switch fluorescence ratio, system ATP, item "TTGGTTTTCC" . Result: 1.01

Simply: "AGGGGTGTT" , ATP, switch fluorescence ratio = 1.02

Noted switch fluorescence ratio for "ATAGTATGTT" , tested on ATP: 0.99

# switch fluorescence ratio measured on ATP for item "ACTATGATCA" = 1.02
